# assayedSystem: human TLR8 (Homo sapiens, UniProt Q9NR97)
# Construct: own knowledge: stably transfected with the human TLR8 gene)
# Sequence (Q9NR97 27-1041): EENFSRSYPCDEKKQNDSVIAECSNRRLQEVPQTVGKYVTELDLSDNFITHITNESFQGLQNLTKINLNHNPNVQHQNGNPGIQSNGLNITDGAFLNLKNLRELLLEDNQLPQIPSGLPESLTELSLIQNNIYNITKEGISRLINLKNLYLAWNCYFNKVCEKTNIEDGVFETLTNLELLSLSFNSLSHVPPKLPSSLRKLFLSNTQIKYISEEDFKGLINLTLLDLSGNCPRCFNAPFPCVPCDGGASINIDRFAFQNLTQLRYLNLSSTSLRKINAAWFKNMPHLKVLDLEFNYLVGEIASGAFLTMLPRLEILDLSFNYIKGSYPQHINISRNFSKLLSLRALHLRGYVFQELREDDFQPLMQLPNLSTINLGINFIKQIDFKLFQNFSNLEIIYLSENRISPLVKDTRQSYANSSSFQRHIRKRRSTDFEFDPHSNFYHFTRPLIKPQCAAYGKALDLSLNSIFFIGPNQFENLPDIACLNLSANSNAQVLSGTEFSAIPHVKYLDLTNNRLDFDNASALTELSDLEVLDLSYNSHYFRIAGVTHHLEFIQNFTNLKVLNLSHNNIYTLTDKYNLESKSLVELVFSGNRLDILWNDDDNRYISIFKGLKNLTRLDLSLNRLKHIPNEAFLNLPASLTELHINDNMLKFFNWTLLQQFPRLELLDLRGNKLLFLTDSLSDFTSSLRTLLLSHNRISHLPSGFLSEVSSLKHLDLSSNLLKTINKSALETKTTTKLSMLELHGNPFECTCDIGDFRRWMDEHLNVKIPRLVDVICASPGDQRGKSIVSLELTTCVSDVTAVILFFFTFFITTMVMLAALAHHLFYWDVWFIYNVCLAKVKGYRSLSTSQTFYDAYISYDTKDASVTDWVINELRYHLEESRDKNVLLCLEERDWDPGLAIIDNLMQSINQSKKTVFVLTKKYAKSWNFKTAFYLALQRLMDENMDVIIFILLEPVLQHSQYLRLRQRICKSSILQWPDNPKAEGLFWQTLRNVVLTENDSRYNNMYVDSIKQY
# procedureDetails: HEK-Blue human TLR8 cells, NF-κB SEAP reporter assay
# conditionContext: stimulation for 20 hours, SEAP reporter read at 640 nm
Consider the cut-off 0.02 µM. If the recorded EC50 is strictly smaller, the label is true; if not, the label is false.

Ask: Quick check: does CCCN(CCC)C(=O)C1=Cc2ccc(-c3ccc(S(=N)(=O)CC)cc3)cc2N=C(N)C1 (centres unmarked) have EC50 under 0.02 µM?
Reply: false

Now examine the next entry.
Ask: Quick check: does CCCN(CCC)C(=O)C1=Cc2ccc(-c3cncc([S+](C)[O-])c3)cc2N=C(N)C1 (centres unmarked) have EC50 under 0.02 µM?
Reply: true

###

Each item that follows carries a reported pEC50.
# assayedSystem: human TLR8 (Homo sapiens, UniProt Q9NR97)
# Construct: own knowledge: stably transfected with the human TLR8 gene)
# procedureDetails: HEK-Blue human TLR8 cells, NF-κB SEAP reporter assay
# conditionContext: stimulation for 20 hours, SEAP reporter read at 640 nm
Please report pEC50 as the negative decimal logarithm of the molar concentration, giving only the number.

Some solved entries appear below for comparison.
Ask: Find the recorded pEC50 belonging to CCCN(CCC)C(=O)C1=Cc2ccc(-c3cncc(S(C)(=N)=O)c3)cc2N=C(N)C1 (stereo not drawn) and report it.
Reply: 7.55

Ask: Also, CCCN(CCC)C(=O)C1=Cc2ccc(-c3cccc([S+]([O-])CC)c3)cc2N=C(N)C1 (stereo not drawn) please.
Reply: 8.10

Ask: Also, CCCN(CCC)C(=O)C1=Cc2ccc(-c3ccc(S(C)(=N)=O)cc3)cc2N=C(N)C1 (stereo not drawn) please.
Reply: 7.60

Ask: Also, CCCN(CCC)C(=O)C1=Cc2ccc(-c3cccc(S(=N)(=O)CC)c3)cc2N=C(N)C1 (stereo not drawn) please.
Reply: 7.82

Ask: Also, CCCN(CCC)C(=O)C1=Cc2ccc(-c3cccc([S+](C)[O-])c3)cc2N=C(N)C1 (stereo not drawn) please.
Reply: 8.40

Ask: Also, CCCN(CCC)C(=O)C1=Cc2ccc(-c3cccc(S(C)(=O)=NCCOCCO)c3)cc2N=C(N)C1 (stereo not drawn) please.
Reply: 7.96

Further cases:
Ask: Find the recorded pEC50 belonging to CCCN(CCC)C(=O)C1=Cc2ccc(-c3ccc([S+](C)[O-])cc3)cc2N=C(N)C1 (stereo not drawn) and report it.
Reply: 7.59

Ask: Also, CCCN(CCC)C(=O)C1=Cc2ccc(-c3cccc(S(C)(=N)=O)c3)cc2N=C(N)C1 (stereo not drawn) please.
Reply: 7.89

Ask: Also, CCCN(CCC)C(=O)C1=Cc2ccc(-c3ccc([S+]([O-])CC)cc3)cc2N=C(N)C1 (stereo not drawn) please.
Reply: 7.68
